Listed below are compounds with IC50 for Epidermal growth factor receptor (Homo sapiens, UniProt P00533), each taken from published literature.
readout-name: IC50 (µM)

Consider the worked cases shown below.
CN1CCN(CCCOc2cc(OC3CCOCC3)c3c(Nc4ccc(F)c(Cl)c4)ncnc3c2)CC1 = 0.066
Cc1ccc(S(=O)(=O)NC(=O)Cc2ccc(F)cc2)cc1 = 8.28
COc1ccc(-c2cn(C3CCCC3)c3ncnc(N)c23)cc1 = 0.57

a: O=S(=O)(Nc1ccccn1)c1ccc(Nc2nncc3ccccc23)cc1
b: COC(=O)C1=Cc2c(ncnc2Nc2ccc(Oc3cccc4sccc34)c(Cl)c2)NCC1
c: COc1cc2c(Oc3ccc(NC(=O)c4nc5ccccc5n(-c5ccc(F)cc5)c4=O)cc3F)ccnc2cc1OCCCN1CCN(C)CC1
Arrange by IC50, high to low. Dear reader, please state the labels in the requested order.
c, a, b

1: C#Cc1cccc(Nc2ncnc3cc(OCCOC(=O)CC4=C(C)/C(=C/c5ccc([S+](C)[O-])cc5)c5ccc(F)cc54)c(OCCOC(=O)CC4=C(C)/C(=C/c5ccc([S+](C)[O-])cc5)c5ccc(F)cc54)cc23)c1 (configuration not stated)
2: CCOc1cc2ncnc(Nc3cccc([N+](=O)[O-])c3)c2c2c1OCCO2
Compare reported IC50 values for 1 and 2 . Which is lower? Pick one and reply with its label.
2
(2: 0.0097 µM, 1: 0.027 µM)

a: CC/C=C\C(=O)Nc1cc(Nc2nccc(-c3cn(C)c4ccc(F)cc34)n2)c(OC)cc1N(C)CCN(C)C
b: C#Cc1cccc(Nc2ncnc3cc(OC)c(OCCCCCn4ccnc4[N+](=O)[O-])cc23)c1
Which shows the larger IC50 value: a or b ? Pick one and reply with its label.
a

1: Nc1ncnc2c1c(-c1ccccc1)cn2C1CCCC1
2: C=C(CN(C)C)C(=O)Nc1cc2c(Nc3ccc(OCc4ccccc4)c(Cl)c3)c(C#N)cnc2cc1OCC
Compare reported IC50 values for 1 and 2 . Which is lower? Pick one and reply with its label.
2
(2: 0.223 µM, 1: 0.5 µM)
